Item-by-item account of MIC
test system: Proteus mirabilis ATCC 21100; assay: In vitro antibacterial activity, MIC, Proteus mirabilis ATCC 21100; assay type: cell-based; settings: ATCC21100; Proteus mirabilis ATCC 21100; 37° C., pH=7.4, inoculum 10^4; read-out: MIC
Field: numeric (µg/mL). Do not append units.

Take a look at these entries with their results.
CCn1cc(C(=O)O)c(=O)c2cc(C=NOCCCN(C)C)sc21 = 3.12
CCn1cc(C(=O)O)c(=O)c2cc([N+](=O)[O-])sc21 [Compound Y, reference compound] = 12.5
CCn1cc(C(=O)O)c(=O)c2cc(C=NOC)sc21 = 0.78
CCn1cc(C(=O)O)c(=O)c2cc(/C=N\O)sc21 = 12.5

Q. So what MIC did `CCn1cc(C(=O)O)c(=O)c2cc(C=Nc3ccccc3)sc21` get with Proteus mirabilis ATCC 21100?
A. 12.5

====

test system: Escherichia coli SOL RL 90; test: In vitro antibacterial activity, MIC, Escherichia coli SOL RL 90; assay type: cell-based; settings: SOLRL90; Escherichia coli SOL RL 90; 37° C., pH=7.4, inoculum 10^4; read-out: MIC
Documented MIC across a set of compounds
All answers are understood in µg/mL, so give the number only.

Please review the following examples before continuing.
CCn1cc(C(=O)O)c(=O)c2cc(C=Nc3ccc(OC)cc3)sc21 = 3.12
CCn1cc(C(=O)O)c(=O)c2cc([N+](=O)[O-])sc21 [Compound Y, reference compound] = 6.25
CCn1cc(C(=O)O)c(=O)c2cc(C=Nc3ccccc3)sc21 = 6.25

From here, focus on the item given below.
Q. Quick one: MIC of `CCn1cc(C(=O)O)c(=O)c2cc(C=NOCCCN(C)C)sc21` ?
A. 25

====

tested on: Salmonella typhimurium A 222 IP; test: In vitro antibacterial activity, MIC, Salmonella typhimurium A 222 IP; format: cell-based; conditions: Salmonella enterica; Salmonella typhimurium A 222 IP; 37° C., pH=7.4, inoculum 10^4; read-out: MIC
READOUT: MIC (µg/mL)
Field: numeric (µg/mL). Do not append units.

Solved entries:
CCn1cc(C(=O)O)c(=O)c2cc(C=NOCCCN(C)C)sc21 = 25
CCn1cc(C(=O)O)c(=O)c2cc(C=Nc3ccc(OC)cc3)sc21 = 3.12

Q. Tell me reported MIC for CCn1cc(C(=O)O)c(=O)c2cc([N+](=O)[O-])sc21 [Compound Y, reference compound] , tested with Salmonella typhimurium A 222 IP.
A. 6.25

Q. Record lookup: for Salmonella typhimurium A 222 IP, what MIC belongs to `CCn1cc(C(=O)O)c(=O)c2cc(C=Nc3ccccc3)sc21` ?
A. 6.25

====

Catalogue of MIC values
system: Klebsiella pneumoniae R 30; experiment: In vitro antibacterial activity, MIC, Klebsiella pneumoniae R 30; type: cell-based; conditions: R30; Klebsiella pneumoniae R 30; 37° C., pH=7.4, inoculum 10^4; read-out: MIC
Answer with a number only, understood to be in µg/mL.

Q. Return MIC measured with Klebsiella pneumoniae R 30 given this molecule: CCn1cc(C(=O)O)c(=O)c2cc([N+](=O)[O-])sc21 [Compound Y, reference compound]
A. 25

Q. # returns recorded MIC (system: Klebsiella pneumoniae R 30) for `CCn1cc(C(=O)O)c(=O)c2cc(C=NOCCCN(C)C)sc21`
A. 25

Q. Observed MIC on Klebsiella pneumoniae R 30 for `CCn1cc(C(=O)O)c(=O)c2cc(C=Nc3ccc(OC)cc3)sc21` , please.
A. 12.5
